Measured AC50 accompanies every entry in the list below.
- study.system: CAAX prenyl protease 2 (Saccharomyces cerevisiae S288c, UniProt Q03530)
- Sequence (Q03530 whole entry): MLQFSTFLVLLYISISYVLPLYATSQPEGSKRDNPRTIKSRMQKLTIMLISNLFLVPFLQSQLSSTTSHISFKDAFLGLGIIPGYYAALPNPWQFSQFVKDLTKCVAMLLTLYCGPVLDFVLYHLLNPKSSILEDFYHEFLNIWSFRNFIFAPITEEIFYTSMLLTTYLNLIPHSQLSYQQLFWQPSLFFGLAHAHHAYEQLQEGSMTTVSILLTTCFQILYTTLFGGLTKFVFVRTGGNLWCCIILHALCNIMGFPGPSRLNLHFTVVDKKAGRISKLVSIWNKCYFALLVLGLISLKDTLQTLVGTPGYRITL
- Assay type: biochemical
Calls of active or inactive are those of the source.

>  <structure.smiles.string>
CN(C)c1cc(O)c(C(S)=Nc2ccccc2)c(N(C)C)c1

>  <AC50>
52.2 µM (active)

$$$$
>  <structure.smiles.string>
[H]/N=C(\N/C(=N/[H])NCCCCCCNC(=N)NC(=N)Nc1ccc(Cl)cc1)Nc1ccc(Cl)cc1

>  <AC50>
23.1 µM (active)

$$$$
>  <structure.smiles.string>
O=C(Nc1ccccc1-c1nc2ccccc2[nH]1)c1ccc(N2C(=O)CCC2=O)cc1

>  <AC50>
75.6 µM (active)

$$$$
>  <structure.smiles.string>
CN1CCN(Cc2c(C(=O)N/N=C/c3cccc(Br)c3)nnn2-c2nonc2N)CC1

>  <AC50>
2.08 µM (active)

$$$$

The measurements presented in this section are drawn from ChEMBL document CHEMBL1201862.
